Target protein (sequence): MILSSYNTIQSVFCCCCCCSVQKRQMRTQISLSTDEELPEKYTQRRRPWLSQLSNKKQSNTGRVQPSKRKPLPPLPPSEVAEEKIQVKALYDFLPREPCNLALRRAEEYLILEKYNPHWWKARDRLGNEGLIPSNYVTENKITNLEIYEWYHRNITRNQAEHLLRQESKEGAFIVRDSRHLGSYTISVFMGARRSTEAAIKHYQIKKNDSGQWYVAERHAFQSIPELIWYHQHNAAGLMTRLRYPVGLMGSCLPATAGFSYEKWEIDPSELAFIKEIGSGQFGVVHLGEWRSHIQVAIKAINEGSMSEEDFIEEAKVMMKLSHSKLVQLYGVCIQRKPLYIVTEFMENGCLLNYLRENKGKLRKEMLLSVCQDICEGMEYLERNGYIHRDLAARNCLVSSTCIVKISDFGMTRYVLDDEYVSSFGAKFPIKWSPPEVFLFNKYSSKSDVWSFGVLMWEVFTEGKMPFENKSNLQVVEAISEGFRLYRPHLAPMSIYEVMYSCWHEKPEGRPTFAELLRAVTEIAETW
pIC50: −log10 of the molar value.

- Compound: "Cc1cc(C(=O)Nc2nc3cccc(Cl)c3n2[C@@H]2CCCCN(C(=O)/C=C/CN(C)C)C2)ccn1 [Compound A]"
  pIC50: 8.70
